Test system: MCF-7
Assay: MTT cytotoxicity assay, MCF-7 breast cancer cell line
Format: cell-based, human
Conditions: Homo sapiens, MCF7; MCF-7, MTT; read-out: MCF-7 IC50 (µM) ± SD
// IC50 lookup, one value per entry
Kindly write the number and append the unit.

{"columns": ["COMPOUND", "READOUT VALUE"],
 "data": [
  ["NS(=O)(=O)c1ccc(Nc2csc(N=Cc3ccc(O)cc3)n2)cc1 (stereo in doubt) [Compound M3]", "87.7 µM"]
]}

As a next step, examine the compound that follows.
-- ask Query (compound): CN(C)c1ccc(/C=N/c2nc(Nc3ccc(S(N)(=O)=O)cc3)cs2)cc1 [Compound M4] ; field requested: IC50
-- reply 77.4 µM

These data points were gathered from paper PMC10994617.
